pIC50 values for the compounds below.
# target_desc: human orexin receptor 2 (Homo sapiens (Human), UniProt O43614)
# Sequence (O43614 whole entry): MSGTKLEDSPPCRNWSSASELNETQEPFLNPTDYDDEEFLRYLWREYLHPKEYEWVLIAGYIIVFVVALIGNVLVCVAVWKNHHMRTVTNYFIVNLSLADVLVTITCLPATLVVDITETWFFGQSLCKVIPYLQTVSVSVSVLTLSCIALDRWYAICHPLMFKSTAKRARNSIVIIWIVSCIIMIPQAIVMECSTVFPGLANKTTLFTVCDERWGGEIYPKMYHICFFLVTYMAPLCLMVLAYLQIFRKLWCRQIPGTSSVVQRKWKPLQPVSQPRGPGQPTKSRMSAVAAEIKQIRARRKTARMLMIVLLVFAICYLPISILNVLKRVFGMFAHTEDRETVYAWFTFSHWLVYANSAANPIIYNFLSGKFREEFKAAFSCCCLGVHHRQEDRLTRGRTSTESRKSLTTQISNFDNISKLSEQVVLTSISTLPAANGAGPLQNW
# procedure_details: Orexin antagonist activity, intracellular calcium FLIPR assay, RBL-2H3 cells expressing human orexin receptor 2
# condition_label: RBL-2H3 cells stably expressing human orexin receptor 2; orexin-A at approx. 80% maximal response; compound added 15 minutes before; read-out: Human Orexin2R IC50
pIC50: −log10 of the molar value.

[[record]]
compound = "O=C(NC1CCCC1Cc1cc(C(F)(F)F)ccn1)c1ccccc1-n1nccn1 (single isomer, unassigned) [Example 23]"
target_desc = "human orexin receptor 2 (Homo sapiens (Human), UniProt O43614)"
assay_result = 5.42

[[record]]
compound = "COc1cccc(OC)c1C(=O)N[C@H]1CCC[C@@H]1Nc1cnc(C(F)(F)F)cn1 [Example 34]"
target_desc = "human orexin receptor 2 (Homo sapiens (Human), UniProt O43614)"
assay_result = "< 5.00"

[[record]]
compound = "O=C(N[C@H]1CCC[C@H]1Oc1cnc(C(F)(F)F)cn1)c1ccccc1-n1nccn1 [Example 19]"
target_desc = "human orexin receptor 2 (Homo sapiens (Human), UniProt O43614)"
assay_result = 5.21

[[record]]
compound = "O=C(N[C@H]1CCC[C@@H]1Nc1ncc(C(F)(F)F)cc1Cl)c1ccccc1-n1nccn1 [Example 106]"
target_desc = "human orexin receptor 2 (Homo sapiens (Human), UniProt O43614)"
assay_result = "< 5.00"

[[record]]
compound = "CCc1nc(C(F)(F)F)cnc1N[C@H]1CCC[C@@H]1NC(=O)c1ccccc1-c1ncccn1 [Example 151]"
target_desc = "human orexin receptor 2 (Homo sapiens (Human), UniProt O43614)"
assay_result = "< 5.00"

[[record]]
compound = "CC1(Nc2cnc(C(F)(F)F)cn2)CCCC1NC(=O)c1ccccc1-n1nccn1 (stereo not shown) [Example 82]"
target_desc = "human orexin receptor 2 (Homo sapiens (Human), UniProt O43614)"
assay_result = 5.12

[[record]]
compound = "O=C(N[C@H]1CCC[C@@H]1Nc1cnc(C(F)(F)F)cn1)c1c(F)cccc1F [Example 33]"
target_desc = "human orexin receptor 2 (Homo sapiens (Human), UniProt O43614)"
assay_result = "< 5.00"

[[record]]
compound = "O=C(N[C@H]1CCC[C@@H]1Nc1cnc(C(F)(F)F)cn1)c1ccccc1-n1cccn1 [Example 31]"
target_desc = "human orexin receptor 2 (Homo sapiens (Human), UniProt O43614)"
assay_result = "< 5.00"

[[record]]
compound = "CC1(Nc2ccc(C(F)(F)F)cn2)CCCC1NC(=O)c1ccccc1-n1nccn1 (stereo not shown) [Example 95]"
target_desc = "human orexin receptor 2 (Homo sapiens (Human), UniProt O43614)"
assay_result = 5.97

[[record]]
compound = "O=C(N[C@H]1CCC[C@@H]1Nc1ccc(C(F)(F)F)cn1)c1ccccc1-n1cccn1 [Example 11]"
target_desc = "human orexin receptor 2 (Homo sapiens (Human), UniProt O43614)"
assay_result = "< 5.00"


Measured pIC50 for this entry O=C(N[C@H]1CCC[C@@H]1Nc1ccc(C(F)(F)F)cn1)c1ccccc1Cl [Example 69] on human orexin receptor 2 (Homo sapiens (Human), UniProt O43614): < 5.00
